Where these numbers come from: patent US7714146B2

Reported inhibition at 1 µM values are given for each entry in this list.
Target: human c-KIT (Thr544-Val976) (Homo sapiens)
Construct: human c-KIT (Thr544-Val976); GST (N); purchased Cell Signaling Technology; host or cells: baculovirus expression system
Sequence (P10721 544-976): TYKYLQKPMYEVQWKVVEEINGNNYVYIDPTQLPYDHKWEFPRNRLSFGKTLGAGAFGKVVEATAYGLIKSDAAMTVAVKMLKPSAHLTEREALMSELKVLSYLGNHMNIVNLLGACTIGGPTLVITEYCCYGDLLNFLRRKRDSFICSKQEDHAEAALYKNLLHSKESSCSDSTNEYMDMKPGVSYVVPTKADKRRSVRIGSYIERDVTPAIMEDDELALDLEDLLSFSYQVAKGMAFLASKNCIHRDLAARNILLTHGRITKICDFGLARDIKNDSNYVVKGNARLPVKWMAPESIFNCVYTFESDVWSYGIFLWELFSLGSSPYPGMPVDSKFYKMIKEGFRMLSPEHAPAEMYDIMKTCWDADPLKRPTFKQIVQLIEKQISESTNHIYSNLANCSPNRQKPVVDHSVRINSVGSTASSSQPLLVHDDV
Assay: c-KIT kinase assay (HTScan kit, DELFIA)
Type: biochemical
Conditions: compound at 1 μM; read-out: c-KIT 1 μM, % of inhibition relative to control
Method: Compounds 1-100 were treated for their efficacy in inhibiting activities of FLT-3, c-KIT, KDR/Flk-1, PDGFR-beta, EGFR, and PKC kinases by biochemical DELFIA (Dissociation Enhanced Lanthanide FIA) assays according to the procedure described below. The assays were conducted by, Division of Cell Engineering, Biomedical Engineering Research Laboratories, Industrial Technology Research Institute, Bldg. 53, 195, sec. 4, Chung Hsing Rd. Chutung, Hsinchu, Taiwan 310, R.O.C. […]
Express it in %; write the number only.

Below: 3 compounds and their reported inhibition at 1 µM.
Structure Smiles: O=C1Nc2ccc(Br)cc2/C1=C\c1ccc2cccccc1-2
Subject Of Test: human c-KIT (Thr544-Val976) (Homo sapiens)
inhibition at 1 µM / %: 30.9

Structure Smiles: Cc1cc(C=C2C(=O)Nc3ccccc32)c2cccccc1-2
Subject Of Test: human c-KIT (Thr544-Val976) (Homo sapiens)
inhibition at 1 µM / %: 53.2

Structure Smiles: O=C1Nc2ccc([N+](=O)[O-])cc2/C1=C/c1ccc2cccccc1-2
Subject Of Test: human c-KIT (Thr544-Val976) (Homo sapiens)
inhibition at 1 µM / %: 36.4

q: Provide human c-KIT (Thr544-Val976) (Homo sapiens) inhibition at 1 µM reading for CCOC(=O)N1CCC(Nc2ccc3c(c2)/C(=C\c2cc(C)c4c(OCCCN(C)C)ccccc2-4)C(=O)N3)CC1 .
a: 2.4

q: Give reported inhibition at 1 µM for Cc1cc(C=C2C(=O)Nc3ccc(S(=O)(=O)NCCCN4CCN(C)CC4)cc32)c2cccccc1-2 (human c-KIT (Thr544-Val976) (Homo sapiens))
a: 30.7

q: Specify inhibition at 1 µM for Cc1cc(/C=C2\C(=O)Nc3ccc(F)cc32)c2cccccc1-2 , system human c-KIT (Thr544-Val976) (Homo sapiens).
a: 80.1

q: Please look at O=C1Nc2ccc(F)cc2/C1=C/c1cc(Cl)c2cccccc1-2 and tell me its recorded inhibition at 1 µM on human c-KIT (Thr544-Val976) (Homo sapiens).
a: 70.9

q: Look up and report inhibition at 1 µM, with human c-KIT (Thr544-Val976) (Homo sapiens) as system, for COc1ccc2c(c1)/C(=C\c1ccc3cccccc1-3)C(=O)N2
a: 14.7

q: Quote human c-KIT (Thr544-Val976) (Homo sapiens) inhibition at 1 µM for entry O=C1Nc2ccc(F)cc2/C1=C\c1ccccc2cccc1-2 .
a: 20.2

q: Give reported inhibition at 1 µM for O=C1Nc2ccc(F)cc2/C1=C/c1c(Br)c2cccccc-2c1Br (human c-KIT (Thr544-Val976) (Homo sapiens))
a: 30.5

q: Using human c-KIT (Thr544-Val976) (Homo sapiens) as the test system, report measured inhibition at 1 µM of O=C1Nc2ccccc2/C1=C/c1cc2cccccc-2c1 .
a: 63.1

q: Give human c-KIT (Thr544-Val976) (Homo sapiens) inhibition at 1 µM for the following compound: CNS(=O)(=O)c1ccc2c(c1)/C(=C\c1cc(C)c3c(OCCCN(C)C)ccccc1-3)C(=O)N2
a: 19.3

q: Jot down inhibition at 1 µM (human c-KIT (Thr544-Val976) (Homo sapiens)) of CN(C)Cc1cc(/C=C2/C(=O)Nc3ccc(F)cc32)c2cccccc1-2 .
a: 51.3

q: Write inhibition at 1 µM of O=C1Nc2ccc(F)cc2/C1=C/c1c2cccccc-2oc1=O ; system used: human c-KIT (Thr544-Val976) (Homo sapiens)
a: 45.6
